Target: BRG-1 (Homo sapiens, UniProt P51532)
Construct: made in house; host or cells: High Five insect cells
Sequence (P51532 whole entry): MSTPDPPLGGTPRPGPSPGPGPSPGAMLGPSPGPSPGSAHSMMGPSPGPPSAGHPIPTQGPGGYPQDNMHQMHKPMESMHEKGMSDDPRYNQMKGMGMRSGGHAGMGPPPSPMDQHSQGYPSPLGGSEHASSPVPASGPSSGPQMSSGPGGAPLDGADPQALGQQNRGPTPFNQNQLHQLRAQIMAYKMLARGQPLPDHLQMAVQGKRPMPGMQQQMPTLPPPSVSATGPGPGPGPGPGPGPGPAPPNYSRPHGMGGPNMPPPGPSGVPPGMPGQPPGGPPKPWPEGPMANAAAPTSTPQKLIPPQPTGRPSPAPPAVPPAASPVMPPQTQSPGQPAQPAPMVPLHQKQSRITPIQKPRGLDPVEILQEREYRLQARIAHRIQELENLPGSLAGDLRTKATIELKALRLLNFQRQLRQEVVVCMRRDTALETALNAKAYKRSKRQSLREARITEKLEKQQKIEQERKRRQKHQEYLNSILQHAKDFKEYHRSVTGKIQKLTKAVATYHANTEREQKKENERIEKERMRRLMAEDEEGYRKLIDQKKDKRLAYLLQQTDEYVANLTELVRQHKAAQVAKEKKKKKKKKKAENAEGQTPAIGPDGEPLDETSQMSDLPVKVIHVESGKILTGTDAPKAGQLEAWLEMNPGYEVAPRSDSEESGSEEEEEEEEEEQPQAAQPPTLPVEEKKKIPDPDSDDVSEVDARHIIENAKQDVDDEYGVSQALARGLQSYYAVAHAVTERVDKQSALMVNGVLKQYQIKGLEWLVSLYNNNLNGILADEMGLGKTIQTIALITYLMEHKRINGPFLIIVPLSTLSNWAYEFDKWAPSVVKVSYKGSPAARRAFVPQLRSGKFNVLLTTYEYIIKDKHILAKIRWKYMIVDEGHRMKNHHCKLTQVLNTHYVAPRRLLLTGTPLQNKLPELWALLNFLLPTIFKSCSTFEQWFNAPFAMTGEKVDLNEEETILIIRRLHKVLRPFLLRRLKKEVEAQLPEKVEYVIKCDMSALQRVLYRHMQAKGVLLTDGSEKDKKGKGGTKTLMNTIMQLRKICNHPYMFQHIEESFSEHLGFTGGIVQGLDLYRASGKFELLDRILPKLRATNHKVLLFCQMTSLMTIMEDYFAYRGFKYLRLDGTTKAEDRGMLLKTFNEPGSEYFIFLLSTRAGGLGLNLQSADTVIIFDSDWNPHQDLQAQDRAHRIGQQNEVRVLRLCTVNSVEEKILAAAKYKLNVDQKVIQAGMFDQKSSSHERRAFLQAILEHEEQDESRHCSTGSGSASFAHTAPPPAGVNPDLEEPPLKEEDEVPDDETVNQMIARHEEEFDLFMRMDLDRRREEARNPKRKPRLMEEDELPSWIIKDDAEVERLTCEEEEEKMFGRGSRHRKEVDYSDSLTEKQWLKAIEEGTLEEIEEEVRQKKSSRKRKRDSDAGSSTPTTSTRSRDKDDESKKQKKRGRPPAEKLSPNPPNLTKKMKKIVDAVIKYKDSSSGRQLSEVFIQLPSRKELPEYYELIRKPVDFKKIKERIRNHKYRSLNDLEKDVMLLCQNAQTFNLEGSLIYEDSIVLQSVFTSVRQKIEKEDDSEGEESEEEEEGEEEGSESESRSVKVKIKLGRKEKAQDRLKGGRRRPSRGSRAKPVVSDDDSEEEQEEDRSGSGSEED
Assay: ATPase catalytic activity of BRG-1, ADP-Glo in vitro biochemical assay
Details: ATPase catalytic activity, 30 nM BRG-1, 400 μM ATP, read-out: BRG1 IP50 (μM)*
reported.metric: IC50

Here's what some known entries look like.
1) CS(=O)(=O)n1ccc(C(=O)NCC(=O)Nc2nc(-c3cccc(COc4ccncc4)c3)cs2)c1 [Compound 108] :: > 0.01 µM
2) CO[C@@H]1CCCN(c2cccc(-c3csc(NC(=O)CNC(=O)c4ccn(C(C)(C)C)c4)n3)c2)C1 [Compound 97] :: > 0.1 µM
3) CS(=O)(=O)n1ccc(C(=O)NCC(=O)Nc2cccc(-c3cccc(-c4ccncc4)c3)n2)c1 [Compound 156] :: > 0.01 µM
4) CN1CCN(c2cc(-c3cccc(-c4csc(NC(=O)CNC(=O)c5ccn(S(C)(=O)=O)c5)n4)c3)ccn2)CC1 [Compound 19] :: > 0.01 µM
5) CN(C)CCC(NC(=O)c1ccn(S(C)(=O)=O)c1)C(=O)Nc1nc(-c2cccc(-c3ccncc3)c2)cs1 (centres unmarked) [Compound 77] :: > 0.01 µM

Q) Need IC50 of C[C@@H]1CN(c2nccc(-c3csc(NC(=O)CNC(=O)c4ccn(S(C)(=O)=O)c4)n3)n2)C[C@H](C)O1 [Compound 325] , thanks.
A) < 0.01 µM

Q) Need IC50 of CS(=O)(=O)n1ccc(C(=O)NCC(=O)Nc2nc(-c3cccc(-c4cnnn4C(F)F)c3)cs2)c1 [Compound 278] , thanks.
A) > 0.01 µM

Q) Need IC50 of Cn1cc(-c2cccc(-c3csc(NC(=O)CNC(=O)c4ccn(C(C)(C)C)c4)n3)c2)cn1 [Compound 83] , thanks.
A) > 0.01 µM

* * *

Biological target: BRG-1 (Homo sapiens, UniProt P51532)
Construct: made in house; host or cells: High Five insect cells
Test: ATPase catalytic activity of BRG-1, ADP-Glo in vitro biochemical assay
Details: ATPase catalytic activity, 30 nM BRG-1, 400 μM ATP, read-out: BRG1 IP50
pIC50: −log10 of the molar value.
Measured pIC50, listed per entry for reference.

1) Cn1ccc(-c2cccc(-c3csc(NC(=O)CNC(=O)c4ccn(C(C)(C)C#N)c4)n3)c2)n1 :: < 8.00

Q) Need pIC50 of CC(C)(C)n1ccc(C(=O)NCC(=O)Nc2nc(-c3cccc(N4CCC(OC(F)F)C4)n3)cs2)c1 (centres unmarked) , thanks.
A) < 8.00

Q) Need pIC50 of `COC[C@H](NC(=O)c1ccn(S(C)(=O)=O)c1)C(=O)Nc1nc(-c2cccc(N3CC[C@H](C(F)F)C3)n2)cs1` , thanks.
A) < 8.00

Q) Need pIC50 of `CC(C)(C)n1ccc(C(=O)NCC(=O)Nc2nc(-c3cccc(N4CCN(c5cccnn5)CC4)n3)cs2)c1` , thanks.
A) < 7.00

Q) Need pIC50 of `COC[C@H](NC(=O)c1ccn(S(C)(=O)=O)c1)C(=O)Nc1nc(-c2cccc(C3COC3)c2)cs1` , thanks.
A) < 8.00

Q) Need pIC50 of `COC(=O)N1CCC[C@H](c2csc(NC(=O)CNC(=O)c3ccn(C(C)(C)C)c3)n2)C1` , thanks.
A) < 7.00

Q) Need pIC50 of `N#CC1(n2ccc(C(=O)NCC(=O)Nc3nc(-c4cc(F)cc(OC5CC5)c4)cs3)c2)CC1` , thanks.
A) < 8.00

Q) Need pIC50 of `COC[C@H](NC(=O)c1ccn(S(C)(=O)=O)c1)C(=O)Nc1nc(-c2cccc(N3CCC3)c2F)cs1` , thanks.
A) < 8.00

Q) Need pIC50 of `CS(=O)(=O)n1ccc(C(=O)NCC(=O)Nc2nc(-c3cccc([C@H]4[C@@H]5COC[C@@H]54)c3)cs2)c1` , thanks.
A) < 8.00

Q) Need pIC50 of `CN(C)[C@H]1CCN(c2cccc(-c3csc(NC(=O)CNC(=O)c4ccn(C(C)(C)C)c4)n3)n2)C1` , thanks.
A) < 7.00

Q) Need pIC50 of CS(=O)(=O)n1ccc(C(=O)NCC(=O)Nc2nc(-c3ccc4c(c3)N(C3CCOC3)CC4)cs2)c1 (centres unmarked) , thanks.
A) < 8.00

Q) Need pIC50 of `Cn1cnc2ccc(-c3csc(NC(=O)CNC(=O)c4ccn(C(C)(C)C)c4)n3)cc2c1=O` , thanks.
A) < 8.00

Q) Need pIC50 of `C[C@@H]1CN(c2cccc(-c3cccc(NC(=O)CNC(=O)c4ccn(S(C)(=O)=O)c4)c3F)c2)C[C@H](C)O1` , thanks.
A) < 7.00

Q) Need pIC50 of `CS(=O)(=O)n1ccc(C(=O)NCC(=O)Nc2nc(-c3cccc(C4CC(F)(F)C4)c3)cs2)c1` , thanks.
A) < 8.00

Q) Need pIC50 of `COCC[C@H](NC(=O)c1ccn(C(C)(C)C)c1)C(=O)Nc1nc(-c2ccc3ccn(C)c(=O)c3c2)cs1` , thanks.
A) < 8.00

Q) Need pIC50 of `COC[C@H](NC(=O)c1ccn(C2(C#N)CC2)c1)C(=O)Nc1nc(-c2cccc(-c3ccn(C)n3)c2)cs1` , thanks.
A) < 8.00

* * *

Target: BRG-1 (Homo sapiens, UniProt P51532)
Construct: made in house; host or cells: High Five insect cells
Experiment: ATPase catalytic activity of BRG-1, ADP-Glo in vitro biochemical assay
Conditions: ATPase catalytic activity, 30 nM BRG-1, 400 μM ATP, read-out: BRG1 IP50 (μM)*
reported.metric: IC50

1. CN1CCCc2ccc(-c3csc(NC(=O)CNC(=O)c4ccn(S(C)(=O)=O)c4)n3)cc21 [Compound 306] :: > 0.01 µM
2. C[C@@H]1CCCN(c2cccc(-c3csc(NC(=O)CNC(=O)c4ccn(S(C)(=O)=O)c4)n3)c2)C1 [Compound 238] :: > 0.01 µM
3. C[C@H](NC(=O)c1ccn(S(C)(=O)=O)c1)C(=O)Nc1nc(-c2cccc(N3CCC(O)CC3)c2)cs1 [Compound 370] :: > 0.01 µM
4. CCS(=O)(=O)n1ccc(C(=O)NCC(=O)Nc2nc(-c3cccc(N4CCC(O)CC4)c3)cs2)c1 [Compound 209] :: > 0.01 µM
5. CC(C)C[C@H](NC(=O)c1ccn(S(C)(=O)=O)c1)C(=O)Nc1nc(-c2cccc(-c3ccncc3)c2)cs1 [Compound 75] :: > 0.01 µM
6. CC(C)(C#N)n1ccc(C(=O)NCC(=O)Nc2nc(-c3cccc(C#N)c3)cs2)c1 [Compound 34] :: > 0.1 µM
7. CS(=O)(=O)n1ccc(C(=O)NCC(=O)Nc2nc(-c3cccc(N4CCC(CO)(C(F)(F)F)C4)c3)cs2)c1 (stereo not drawn) [Compound 169] :: > 0.1 µM
8. C[C@@H]1CN(c2cccc(-c3cccc(NC(=O)CNC(=O)c4ccn(S(C)(=O)=O)c4)n3)c2)C[C@H](C)O1 [Compound 374] :: > 0.01 µM
9. CS(=O)(=O)n1cc(C(=O)NCC(=O)Nc2nc(-c3cccc(-c4ccncc4)c3)cs2)cn1 [Compound 44] :: > 0.1 µM
10. CC(C)Oc1cccc(-c2csc(NC(=O)CNC(=O)c3ccn(S(C)(=O)=O)c3)n2)c1 [Compound 281] :: > 0.01 µM

Q) Need IC50 of CS(=O)(=O)n1ccc(C(=O)NCC(=O)Nc2nc(-c3cccc(C(=O)Nc4ccncc4)c3)cs2)c1 [Compound 117] , thanks.
A) > 0.01 µM

Q) Need IC50 of CS(=O)(=O)n1ccc(C(=O)NCC(=O)Nc2nc(-c3cccc(C#CC4COC4)c3)cs2)c1 [Compound 349] , thanks.
A) > 0.01 µM

Q) Need IC50 of CS(=O)(=O)n1ccc(C(=O)NCC(=O)Nc2nc(-c3cccc(N4C[C@H]5C[C@H]5C4)c3)cs2)c1 [Compound 207] , thanks.
A) > 0.01 µM

Q) Need IC50 of C[C@@H]1CN(c2cccc(-c3csc(NC(=O)CNC(=O)c4ccn(S(C)(=O)=O)c4)n3)c2F)C[C@H](C)O1 [Compound 294] , thanks.
A) > 0.01 µM

Q) Need IC50 of Cn1nc(-c2cccc(-c3csc(NC(=O)CNC(=O)c4ccn(C(C)(C)C)c4)n3)c2)cc1CO [Compound 26] , thanks.
A) > 0.01 µM

* * *

Measured IC50, listed per entry for reference.
Target: BRM (Homo sapiens, UniProt P51531)
Construct: made in house; host or cells: High Five insect cells
Sequence (P51531 whole entry): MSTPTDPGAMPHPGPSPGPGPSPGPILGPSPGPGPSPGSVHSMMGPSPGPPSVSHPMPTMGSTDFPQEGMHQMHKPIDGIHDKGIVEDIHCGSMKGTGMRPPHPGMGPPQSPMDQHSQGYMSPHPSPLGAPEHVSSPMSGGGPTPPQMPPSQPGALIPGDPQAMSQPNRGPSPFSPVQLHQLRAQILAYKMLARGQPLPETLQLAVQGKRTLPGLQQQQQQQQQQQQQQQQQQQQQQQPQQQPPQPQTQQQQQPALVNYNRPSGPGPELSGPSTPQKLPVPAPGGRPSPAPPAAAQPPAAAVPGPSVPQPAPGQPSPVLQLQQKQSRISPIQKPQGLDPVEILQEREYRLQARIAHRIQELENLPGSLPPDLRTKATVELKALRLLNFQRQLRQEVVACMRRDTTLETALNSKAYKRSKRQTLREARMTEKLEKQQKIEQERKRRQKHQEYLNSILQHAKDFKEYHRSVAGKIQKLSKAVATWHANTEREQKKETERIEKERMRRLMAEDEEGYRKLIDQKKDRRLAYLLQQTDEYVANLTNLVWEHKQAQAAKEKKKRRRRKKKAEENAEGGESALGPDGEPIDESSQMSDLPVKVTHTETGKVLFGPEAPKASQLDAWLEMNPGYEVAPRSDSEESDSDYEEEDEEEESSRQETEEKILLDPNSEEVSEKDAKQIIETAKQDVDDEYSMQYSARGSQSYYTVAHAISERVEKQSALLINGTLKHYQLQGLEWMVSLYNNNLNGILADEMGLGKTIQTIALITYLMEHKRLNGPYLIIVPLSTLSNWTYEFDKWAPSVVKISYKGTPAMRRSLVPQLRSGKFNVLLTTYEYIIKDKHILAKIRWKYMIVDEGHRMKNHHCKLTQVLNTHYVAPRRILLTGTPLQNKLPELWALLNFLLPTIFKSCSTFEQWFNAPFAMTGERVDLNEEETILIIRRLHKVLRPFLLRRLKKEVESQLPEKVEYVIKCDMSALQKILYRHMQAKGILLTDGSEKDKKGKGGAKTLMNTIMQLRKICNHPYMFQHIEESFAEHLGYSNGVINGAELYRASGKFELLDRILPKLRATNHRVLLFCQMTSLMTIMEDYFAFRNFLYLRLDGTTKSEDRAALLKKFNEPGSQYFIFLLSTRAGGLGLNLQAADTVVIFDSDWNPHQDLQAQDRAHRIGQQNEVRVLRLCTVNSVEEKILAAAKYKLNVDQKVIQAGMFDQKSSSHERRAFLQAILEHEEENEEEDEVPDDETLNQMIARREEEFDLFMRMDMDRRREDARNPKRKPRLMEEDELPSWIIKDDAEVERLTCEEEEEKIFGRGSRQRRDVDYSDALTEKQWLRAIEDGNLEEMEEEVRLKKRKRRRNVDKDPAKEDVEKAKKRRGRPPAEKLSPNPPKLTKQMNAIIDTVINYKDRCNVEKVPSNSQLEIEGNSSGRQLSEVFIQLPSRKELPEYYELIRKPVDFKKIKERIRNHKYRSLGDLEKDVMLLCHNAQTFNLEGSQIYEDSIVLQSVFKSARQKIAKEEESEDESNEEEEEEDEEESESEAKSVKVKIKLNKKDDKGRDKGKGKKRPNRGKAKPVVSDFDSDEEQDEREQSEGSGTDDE
Assay: ATPase catalytic activity of BRM, ADP-Glo in vitro biochemical assay
Settings: ATPase catalytic activity, 30 nM BRM, 400 μM ATP, read-out: BRM IP50 (μM)*

Here's what some known entries look like.
1. Cn1cncc1C(=O)NCC(=O)Nc1nc(-c2cccc(C#N)c2)cs1 :: > 1 µM
2. C[C@@H]1CN(c2ccc(F)c(-c3csc(NC(=O)CNC(=O)c4ccn(S(C)(=O)=O)c4)n3)c2)C[C@H](C)O1 :: > 0.01 µM
3. Cc1cc(-c2cccc(-c3csc(NC(=O)CNC(=O)c4ccn(S(C)(=O)=O)c4)n3)c2)on1 :: > 0.01 µM
4. C[C@@H]1CN(c2cc(F)cc(-c3csc(NC(=O)CNC(=O)c4ccn(S(C)(=O)=O)c4)n3)c2)C[C@H](C)O1 :: < 0.01 µM
5. CS(=O)(=O)n1ccc(C(=O)NCC(=O)Nc2nc(-c3cccc(N4CC[C@@H](O)[C@H](F)C4)c3)cs2)c1 :: < 0.01 µM

Q) Need IC50 of `C[C@H]1CN(c2cccc(-c3csc(NC(=O)CNC(=O)c4ccn(S(C)(=O)=O)c4)n3)c2)[C@@H](C)CO1` , thanks.
A) > 0.01 µM

Q) Need IC50 of `CN(C)c1cccc(-c2csc(NC(=O)CNC(=O)c3ccn(C(C)(C)C)c3)n2)c1` , thanks.
A) > 0.01 µM

Q) Need IC50 of `CC1(n2ccc(C(=O)NCC(=O)Nc3nc(-c4cccc(N5CCC(O)CC5)n4)cs3)c2)COC1` , thanks.
A) > 0.01 µM

Values from patent US20230079819A1
